Hey, just so you know, these numbers are from paper PMC2756588.

measuredOn: T1, Lsb4, P32793
T1 sequence (P32793 402-468, looked up): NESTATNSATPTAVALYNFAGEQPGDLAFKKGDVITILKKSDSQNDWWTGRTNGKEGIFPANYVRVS
assayText: SPOT array
cond: median of control spots 397
A collection of binders and their measured SPOT intensity
propertyMeasured: SPOT intensity

>  <binder>
VAPPPLPNRQLPNLD

>  <measValue>
813

$$$$
>  <binder>
EQEEIAPSLPSRNSI

>  <measValue>
517

$$$$
>  <binder>
NFLRLLIGLPSQNEL

>  <measValue>
0

$$$$
>  <binder>
RSLRKRPTSPSISGS

>  <measValue>
5

$$$$
>  <binder>
PIVPSSPAPPLPLSG

>  <measValue>
0

$$$$
>  <binder>
GERSRPLVISILSSA

>  <measValue>
4

$$$$
>  <binder>
RVTRKRPREPKSTND

>  <measValue>
10

$$$$
>  <binder>
YHSRRHPLALGFKYV

>  <measValue>
0

$$$$
>  <binder>
VNFRRIPTGPDSPPT

>  <measValue>
2

$$$$
>  <binder>
TPTSGPPLLPPRNTM

>  <measValue>
356

$$$$
>  <binder>
RSKRLFPVRPMATAH

>  <measValue>
15

$$$$
>  <binder>
KNRKNLPTIPIRLSG

>  <measValue>
103

$$$$
>  <binder>
PSRRAPLQLPQLVNK

>  <measValue>
2

$$$$
>  <binder>
NSMRPPLLIPAATTK

>  <measValue>
87

$$$$
>  <binder>
NHSRSLFSLPGNQQS

>  <measValue>
0

$$$$
>  <binder>
MARRRLPDRPPNGIG

>  <measValue>
533

$$$$
>  <binder>
LPPPPPPPPPPPLPQ

>  <measValue>
0

$$$$
